// compounds with reported IC50 on UniProtKB P50052, multi-publication
readout-type: IC50 (nM)

COc1ccc2c(c1OCc1ccccc1)C[C@@H](C(=O)O)N(C(=O)[C@H](Oc1ccccn1)c1ccccc1)C2    1340
COc1ccc2c(c1OCc1ccccc1)C[C@@H](C(=O)O)N(C(=O)[C@@H](Oc1ccccn1)c1ccccc1)C2    195
O=C(O)[C@@H]1C[C@H](CSCCc2ccccc2)CN1C(=O)C(c1ccccc1)c1ccccc1    1200
O=C(O)[C@@H]1CN(CCCc2ccccc2)CCN1C(=O)C(c1ccccc1)c1ccccc1    517
O=C(O)[C@@H]1C[C@H](SCCc2ccccc2)CN1C(=O)C(c1ccccc1)c1ccccc1    652
N#Cc1ccc2c(c1OCc1ccccc1)C[C@H](C(=O)O)N(C(=O)[C@@H](OC1CCCC1)c1ccccc1)C2    552
O=C(O)[C@@H]1Cc2c(cccc2OCc2ccccc2)CN1C(=O)[C@@H](O[C@H]1C[C@@H](O)C1)c1ccccc1    83.5
COc1ccc2c(c1O)C[C@@H](C(=O)NS(=O)(=O)N(C)C)N(C(=O)C(c1ccccc1)c1ccccc1)C2    1790
O=C(O)[C@@H]1CN(C/C=C/c2ccccc2)CCN1C(=O)C(c1ccccc1)c1ccccc1    4100
O=C(O)[C@@H]1C[C@H](N2CCCC2Cc2ccccc2)CN1C(=O)C(c1ccccc1)c1ccccc1 (single isomer, unassigned)    107
O=C(O)[C@@H]1Cc2c(cccc2OCc2ccccc2)CN1C(=O)[C@H](O[C@H]1C[C@@H](O)C1)c1ccccc1    879
COc1ccc2c(c1OCc1ccccc1)C[C@@H](C(=O)O)N(C(=O)[C@@H](Oc1ccc(F)cc1F)c1ccccc1)C2    245
COc1ccc2c(c1OCc1ccccc1)C[C@@H](C(=O)O)N(C(=O)[C@H](Oc1cccs1)c1ccccc1)C2    95.1
COc1ccc2c(c1OCc1ccccc1)C[C@@H](C(=O)O)N(C(=O)[C@@H](OC1CC(F)(F)C1)c1ccccc1)C2    3.2

----------
// compounds with reported IC50 on Type-2 angiotensin II receptor (Homo sapiens), multi-publication
readout-type: IC50 (nM)

CN(CCCc1ccc(F)cc1)[C@H]1C[C@@H](C#N)N(C(=O)C(c2ccccc2)c2ccccc2)C1    173
N#Cc1ccc2c(c1OCc1ccccc1)C[C@@H](C(=O)O)N(C(=O)[C@@H](OC1CCCC1)c1ccccc1)C2    1050
O=C(O)[C@@H]1C[C@H](CCCCc2ccccc2)CN1C(=O)C(c1ccccc1)c1ccccc1    426
Cc1ccc2c(c1OCc1ccccc1)C[C@@H](C(=O)O)N(C(=O)[C@H](OC1(C)CCCC1)c1ccccc1)C2    65.6

----------
// molecules with reported pIC50 on Type-2 angiotensin II receptor (Homo sapiens), multi-publication
pIC50: −log10 of the molar value.
Decision: pIC50 >= 7 yields y, all other cases yield n.

COc1ccc2c(c1OCc1ccccc1)C[C@@H](C(=O)O)N(C(=O)[C@@H](NC1CCCC1)c1ccccc1)C2    y
CN(Cc1ccccc1)[C@H]1CCN(C(=O)C(c2ccccc2)c2ccccc2)[C@H](C(=O)O)C1    n
COc1ccc2c(c1OCc1ccccc1)C[C@@H](C(=O)O)N(C(=O)[C@H](Oc1ccccc1)c1ccccc1)C2    n
O=C(O)[C@@H]1Cc2c(ccc(O)c2OCc2ccccc2)CN1C(=O)[C@@H](OC1CCCC1)c1ccccc1    y
COc1ccc2c(c1OCc1ccccc1)C[C@@H](C(=O)O)N(C(=O)[C@@H](OCC(F)(F)F)c1ccccc1)C2    y
O=C(CCc1ccccc1)N[C@H]1C[C@@H](C(=O)O)N(C(=O)C(c2ccccc2)c2ccccc2)C1    n
COc1ccc2c(c1OCc1ccccc1)C[C@](C)(C(=O)O)N(C(=O)[C@H](OC1CCCC1)c1ccccc1)C2    n
COCCO[C@H](C(=O)N1Cc2ccc(OC)c(OCc3ccccc3)c2C[C@H]1C(=O)O)c1ccccc1    n
O=C(O)[C@@H]1C=C(C#CCCc2ccccc2)CN1C(=O)C(c1ccccc1)c1ccccc1    n
COc1ccc2c(c1OCc1ccccc1)C[C@@H](C(=O)O)N(C(=O)[C@@H](OC1CCC3CC31)c1ccccc1)C2 (single isomer, unassigned)    y
O=C(O)[C@@H]1Cc2c(ccc(Cl)c2OCc2ccccc2)CN1C(=O)[C@H](O[C@H]1CC[C@@H](O)CC1)c1ccccc1    y

----------
// compounds with reported pIC50 on Type-2 angiotensin II receptor (Homo sapiens), multi-publication
pIC50: −log10 of the molar value.
readout-type: pIC50

O=C(O)[C@@H]1Cc2c(ccc3c2Oc2ccccc2O3)CN1C(=O)C(c1ccccc1)c1ccccc1    6.80
O=C(O)[C@@H]1CC(OCc2ccccc2)CCN1C(=O)C(c1ccccc1)c1ccccc1 (stereo partly shown)    6.66
CC1(O[C@@H](C(=O)N2Cc3cccc(OCc4ccccc4)c3C[C@H]2C(=O)O)c2ccccc2)CCCC1    6.49
O=C(O)[C@@H]1C[C@H](N2CCCCC2Cc2ccccc2)CN1C(=O)C(c1ccccc1)c1ccccc1 (single isomer, unassigned)    5.87
O=C(O)C1Cc2c(OCc3ccccc3)cccc2N1C(=O)C(c1ccccc1)c1ccccc1 (stereo not shown)    7.26
CN(CC#Cc1ccccc1)[C@H]1C[C@@H](C(=O)O)N(C(=O)C(c2ccccc2)c2ccccc2)C1    6.19
O=C(O)[C@@H]1C[C@H](OC[C@@H]2C[C@H]2c2ccccc2)CN1C(=O)C(c1ccccc1)c1ccccc1 (mixture of isomers)    5.18
O=C(O)[C@@H]1C[C@H](S(=O)(=O)CCCc2ccc(F)cc2)CN1C(=O)C(c1ccccc1)c1ccccc1    6.02
COc1ccc2c(c1OCc1ccccc1)C[C@@H](C(=O)O)N(C(=O)[C@@H](Oc1cccs1)c1ccccc1)C2    7.14
CN(C(=O)CCc1ccccc1)[C@H]1C[C@@H](C(=O)O)N(C(=O)C(c2ccccc2)c2ccccc2)C1    6.34
O=C(O)[C@@H]1C[C@H](N2CCCC(Cc3ccccc3)C2)CN1C(=O)C(c1ccccc1)c1ccccc1 (stereo partly shown)    7.36
O=C(O)[C@@H]1C[C@H](OCCCc2ccccc2)CCN1C(=O)C(c1ccccc1)c1ccccc1    7.00
Cc1ccc2c(c1OCc1ccccc1)C[C@@H](C(=O)O)N(C(=O)[C@@H](OC1(C)CCCC1)c1ccccc1)C2    8.77
Cc1ccc2c(c1OCc1ccccc1)C[C@@H](C(=O)O)N(C(=O)[C@@H](O[C@H]1CC[C@@H](O)CC1)c1ccccc1)C2    5.96
O=C(O)[C@@H]1Cc2c(cccc2OCc2ccccc2)CN1C(=O)[C@H](OC1CC(F)(F)C1)c1ccccc1    6.32
O=C(O)[C@@H]1CN(CCc2ccccc2)CCN1C(=O)C(c1ccccc1)c1ccccc1    5.90
COc1ccc2c(c1OCc1ccccc1)C[C@@H](C(=O)O)N(C(=O)[C@@H](Oc1ccc(C#N)cc1)c1ccccc1)C2    6.64
O=C(O)[C@@H]1CN(CC#Cc2ccccc2)CCN1C(=O)C(c1ccccc1)c1ccccc1    5.38
CN(CCCc1ccc(F)cc1)[C@H]1C[C@@H](C(=O)O)N(C(=O)C(c2ccccc2)c2ccccc2)C1    7.92
COc1ccc2c(c1OCc1ccccc1)C[C@@H](C(=O)O)N(C(=O)[C@@H](O[C@H]1CC[C@@H](O)CC1)c1ccccc1)C2    7.99
O=C(O)[C@@H]1C=C(c2sccc2-c2ccccc2)CN1C(=O)C(c1ccccc1)c1ccccc1    5.60
CN(CC#CC(C)(C)C)[C@@H]1CCN(C(=O)C(c2ccccc2)c2ccccc2)[C@H](C(=O)O)C1    7.47
CC1(O[C@H](C(=O)N2Cc3ccc(Cl)c(OCc4ccccc4)c3C[C@H]2C(=O)O)c2ccccc2)CCCC1    8.41
O=C(O)[C@@H]1C[C@@H](OCc2ccccc2)CN1C(=O)C(c1ccccc1)c1ccccc1    6.71
COc1ccc2c(c1OCc1ccccc1)C[C@@H](C(=O)O)N(C(=O)[C@H](Oc1ccc(F)cc1F)c1ccccc1)C2    7.53
Cc1ccc2c(c1OCc1ccccc1)C[C@@H](C(=O)O)N(C(=O)[C@H](OC1CC(F)(F)C1)c1ccccc1)C2    7.17
